IC50 values recorded for UniProt:P30543
Sequence (P30543 whole entry): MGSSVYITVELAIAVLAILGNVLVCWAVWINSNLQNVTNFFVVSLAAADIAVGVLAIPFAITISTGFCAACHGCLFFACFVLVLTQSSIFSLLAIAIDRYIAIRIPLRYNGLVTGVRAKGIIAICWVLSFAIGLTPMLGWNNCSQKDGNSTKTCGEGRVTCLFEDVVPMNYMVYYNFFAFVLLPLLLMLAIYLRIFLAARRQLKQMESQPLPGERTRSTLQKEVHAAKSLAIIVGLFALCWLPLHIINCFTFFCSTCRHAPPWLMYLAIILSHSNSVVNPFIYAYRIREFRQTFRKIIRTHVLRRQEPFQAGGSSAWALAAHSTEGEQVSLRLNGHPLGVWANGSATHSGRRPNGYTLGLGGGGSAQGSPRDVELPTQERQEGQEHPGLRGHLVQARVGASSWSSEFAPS
Give bare numbers, in nM.

COMPOUND	READING UNIT	READOUT NUMBER
CCCn1c(=O)c2nc(C(C)Cc3ccc(OCC(=O)NCCN)cc3)[nH]c2n(CCC)c1=O (centres unmarked) [Compound 101345]	nM	36

Turning now to a further compound:
Challenge: Please give the documented IC50 of CCCn1c(=O)c2nc(C(C)Cc3ccc(OCC(=O)NCCN)cc3)[nH]c2n(CCC)c1=O (single isomer, unassigned; (+)) [Compound 101993]
Response given: 1800
